- assay.summary: qHTS of pediatric cancer cell lines to identify multiple opportunities for drug repurposing: Confirmatory screen for DAOY cells (AID 1347114); further: nearly all actives have a fitted effect of over 65% in size
- cond: DAOY medulloblastoma cells viability, cytotoxicity qHTS; series mostly up to 45.9 µM
Records with an inconclusive call do not appear. Calls of active or inactive are those of the source. The call rests on the fitted dose curve; in most records, active means well fitted cell-killing curve with a large enough effect; inconclusive means small, poorly fitted or top-dose-only effect; inactive means no such curve, though single readings can be large or run the other way.
Pick one and only one: active, inactive

Some entries whose results are on file:
Request: Given CC(C)NCC(O)c1ccc(NS(C)(=O)=O)cc1 (stereo unspecified) , state the outcome it received in this test.
Result: inactive

Request: Given C[C@@H](CN1CC(=O)NC(=O)C1)N1CC(=O)NC(=O)C1 , state the outcome it received in this test.
Result: inactive

Request: Given Nc1nc(N)nc(-c2cc(Cl)ccc2Cl)n1 , state the outcome it received in this test.
Result: inactive

Next:
Request: Given CO[C@@]12[C@H](COC(N)=O)C3=C(C(=O)C(C)=C(N)C3=O)N1C[C@@H]1N[C@@H]12 , state the outcome it received in this test.
Result: active

Request: Given CN(C)c1ccc(C(=C2C=CC(=[N+](C)C)C=C2)c2ccc(N(C)C)cc2)cc1 , state the outcome it received in this test.
Result: active

Request: Given N=C(N)c1ccc(OCCCCCOc2ccc(C(=N)N)cc2)cc1 , state the outcome it received in this test.
Result: active

###

- Test system: SKOV3
- assay.summary: Primary qHTS to identify gynecologic anti-cancer compounds using libraries of approved drugs and bioactive compounds (AID 1345084); further: nearly all actives have a fitted effect of over 55% in size
- cond: Gynecologic cancer cell panel viability, ATPlite luminescence, 48 h; series mostly up to 57.5 µM
Records with an inconclusive call do not appear. Calls of active or inactive are those of the source. The call rests on the fitted dose curve; in most records, active means well fitted cell-killing curve with a large enough effect; inconclusive means small, poorly fitted or top-dose-only effect, or effect the other way; inactive means flat fitted curve, though single readings scatter.
Pick one and only one: 1.0 (active), 0.0 (inactive)

Some entries whose results are on file:
Request: Given CN1CCN(c2c(F)cc3c(=O)c(C(=O)O)cn4c3c2OCN4C)CC1 , state the outcome it received in this test.
Result: 0.0

Request: Given CCCOc1ccc(C(=O)OCCN(CC)CC)cc1N , state the outcome it received in this test.
Result: 0.0

Request: Given CCOc1cc(N)c(Cl)cc1C(=O)NCC1CN(Cc2ccc(F)cc2)CCO1 (stereo not given) , state the outcome it received in this test.
Result: 0.0

Next:
Request: Given CO[C@@H]1[C@@H](OC(N)=O)[C@@H](O)[C@H](Oc2ccc3c(O)c(NC(=O)c4ccc(O)c(CC=C(C)C)c4)c(=O)oc3c2C)OC1(C)C , state the outcome it received in this test.
Result: 0.0

Request: Given Cc1onc(-c2ccccc2Cl)c1C(=O)N[C@@H]1C(=O)N2[C@@H]1SC(C)(C)[C@@H]2C(=O)O , state the outcome it received in this test.
Result: 0.0

Request: Given CNC1CCCN(c2c(F)cc3c(=O)c(C(=O)O)cn(C4CC4)c3c2OC)C1 (stereo not given) , state the outcome it received in this test.
Result: 0.0

###

- Tested on: Zika virus NS2B-NS3 protease (unlinked)
- assay.summary: Optimization of GU AMC qHTS for Zika virus inhibitors: Unlinked NS2B-NS3 protease assay (AID 1347151); further: nearly all actives have a fitted effect of over 80% in size; further: potency means the concentration at half of the fitted maximal effect
- cond: recombinant ZIKV NS2B-NS3 protease, fluorogenic AMC substrate; series mostly up to 52.5 µM
Inconclusive results are not listed. The source made the active and inactive calls. The call rests on the fitted dose curve; in most records, active means well fitted inhibition curve with a large enough effect; inconclusive means small, poorly fitted or top-dose-only effect; inactive means no such curve, though single readings can be large or run the other way.
quantity.measured: Potency

Request: // lookup Potency for CC1=C(C(=O)O)N2C(=O)[C@@H](NC(=O)C(N)c3ccccc3)[C@H]2SC1 (stereo partly drawn)
Result: inactive

Request: // lookup Potency for CC(C)NCC(O)c1ccc(NS(C)(=O)=O)cc1 (stereo not drawn)
Result: inactive

Request: // lookup Potency for COc1cc2nc(N3CCCN(C)CC3)nc(NC3CCN(Cc4ccccc4)CC3)c2cc1OC
Result: 21.2 µM (active)
